target: dNCS-1 (Drosophila melanogaster); construct: made in house; host or cells: E. coli; assay: Tryptophan emission fluorescence of dNCS-1 at increasing ligand concentrations (apparent Kd); type: binding; conditions: ligand 16 μM
Sequence (Q9VWX8 whole entry): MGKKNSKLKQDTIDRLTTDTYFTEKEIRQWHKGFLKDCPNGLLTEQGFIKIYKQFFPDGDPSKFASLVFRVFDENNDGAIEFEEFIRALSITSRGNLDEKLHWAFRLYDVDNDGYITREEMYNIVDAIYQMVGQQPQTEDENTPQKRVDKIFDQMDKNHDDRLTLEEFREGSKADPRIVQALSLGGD
REPORTED METRIC: Normalized Fluorescence I0-I/I0

Previously resolved entries follow.
molecule="CN(C)CCCN1c2ccccc2Sc2ccc(Cl)cc21 [CPZ, Chlorpromazine, reference compound]" reported_metric="Normalized Fluorescence I0-I/I0" endpoint_value=0.643
molecule=O=C(N/N=C/c1ccc([N+](=O)[O-])c(O)c1)c1ccco1 reported_metric="Normalized Fluorescence I0-I/I0" endpoint_value=0.405
molecule="O=C(NN=Cc1ccc([N+](=O)[O-])c(O)c1)C(O)c1ccccc1 (mixture of isomers)" reported_metric="Normalized Fluorescence I0-I/I0" endpoint_value=0.280

Below: the item to evaluate.
Q: # lookup: Normalized Fluorescence I0-I/I0 of O=C(Cc1c[nH]c2ccccc12)NN=Cc1ccc([N+](=O)[O-])c(O)c1 (mixture of isomers)
Ans: 0.334
